system_under_test: α-1A adrenoceptor (rat vas deferens) (Rattus norvegicus, UniProt P43140)
Construct: PE-induced contraction of rat vas deferens; from tissue; host or cells: isolated rat vas deferens
Sequence (P43140 whole entry): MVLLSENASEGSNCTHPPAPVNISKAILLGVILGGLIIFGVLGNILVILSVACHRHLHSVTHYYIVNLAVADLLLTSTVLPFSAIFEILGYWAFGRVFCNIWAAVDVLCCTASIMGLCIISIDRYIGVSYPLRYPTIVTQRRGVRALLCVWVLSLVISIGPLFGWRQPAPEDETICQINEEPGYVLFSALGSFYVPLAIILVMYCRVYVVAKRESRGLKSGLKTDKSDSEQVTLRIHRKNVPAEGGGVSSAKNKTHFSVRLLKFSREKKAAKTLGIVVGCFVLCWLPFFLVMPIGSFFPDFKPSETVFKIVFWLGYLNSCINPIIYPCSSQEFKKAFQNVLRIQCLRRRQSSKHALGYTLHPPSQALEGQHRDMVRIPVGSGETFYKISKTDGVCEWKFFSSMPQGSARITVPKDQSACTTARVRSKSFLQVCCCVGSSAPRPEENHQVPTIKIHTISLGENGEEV
method_summary: Functional antagonism of phenylephrine-induced contraction of rat vas deferens
Type: cell-based
condition_info: vs phenylephrine-induced contraction, Schild plot; read-out: pA2 Rat Vas Deferens [α-1A] (converted)
Structures can show the parent of a compound that is named as a salt.
Output label 1 for Kb not less than 3 nM; output label 0 otherwise.

Example entries begin here.
> print(dat)
                                   compound  assigned.category
1  CCc1cccc2c1CC[C@H]1CN(CCn3c(=O)[nH]c4cc(OC)c(OC)cc4c3=O)C[C@@H]21 [Example 83, hydrochloride]            label 1
2  COc1cccc2c1CC[C@H]1CN(CCn3c(=O)[nH]c4cccc(C)c4c3=O)C[C@@H]21 (relative stereo) [Example 12, hydrochloride]            label 1
3  COc1cccc2c1CC[C@H]1CN(CCn3c(=O)[nH]c4c(C)c(OC)ccc4c3=O)C[C@@H]21 [Example 77, hydrochloride]            label 0
4  COc1cccc2c1CC[C@H]1CN(CCn3c(=O)[nH]c4sccc4c3=O)C[C@@H]21 (relative stereo) [Example 3, hydrochloride]            label 1

Quick check: does COc1cc2ncn(CCN3C[C@@H]4CCc5c(OC)cccc5[C@@H]4C3)c(=O)c2cc1OC [Example 42, dihydrochloride] have Kb greater than or equal to 3 nM?
label 1

* * *

system_under_test: α-1A adrenoceptor (dog prostate) (Homo sapiens)
Construct: from tissue; host or cells: canine prostate strips
method_summary: Functional antagonism of phenylephrine-induced contraction of canine prostate strips
Format: cell-based, dog (canine)
condition_info: vs phenylephrine-induced contraction, Schild plot
Counter-ions that a name gives are not always drawn.
Output fulfilled for pA2 Dog Prostate [α-1A] not less than 9; output not fulfilled otherwise.

> print(dat)
                                   compound  assigned.category
1  CCOc1ccc2c(=O)n(CCN3C[C@@H]4CCc5c(OC)cccc5[C@@H]4C3)c(=O)[nH]c2c1C [Example 78, hydrochloride]      not fulfilled

Quick check: does COc1cccc2c1CC[C@H]1CN(CCn3c(=O)[nH]c4cc(C)c(C)cc4c3=O)C[C@@H]21 [Example 68, hydrochloride] have pA2 Dog Prostate [α-1A] greater than or equal to 9?
not fulfilled

Quick check: does COc1cccc2c1CC[C@@H]1CN(CCn3c(=O)[nH]c4ccccc4c3=O)C[C@H]21 (relative stereo) [Example 1, hydrochloride] have pA2 Dog Prostate [α-1A] greater than or equal to 9?
fulfilled

Quick check: does COc1cccc2c1CC[C@H]1CN(CCn3c(=O)[nH]c4c(-c5ccccc5)csc4c3=O)C[C@@H]21 (relative stereo) have pA2 Dog Prostate [α-1A] greater than or equal to 9?
not fulfilled

Quick check: does COc1cccc2c1CC[C@H]1CN(CCn3c(=O)[nH]c4c(OC)c(OC)ccc4c3=O)C[C@@H]21 [Example 81, hydrochloride] have pA2 Dog Prostate [α-1A] greater than or equal to 9?
fulfilled

Quick check: does CCCOC(=O)c1ccc2c(=O)n(CCN3C[C@@H]4CCc5c(OC)cccc5[C@@H]4C3)c(=O)[nH]c2c1 [Example 72, hydrochloride] have pA2 Dog Prostate [α-1A] greater than or equal to 9?
not fulfilled

* * *

system_under_test: α-1A adrenoceptor (dog prostate)
Construct: from tissue; host or cells: canine prostate strips
Sequence (P35348 whole entry): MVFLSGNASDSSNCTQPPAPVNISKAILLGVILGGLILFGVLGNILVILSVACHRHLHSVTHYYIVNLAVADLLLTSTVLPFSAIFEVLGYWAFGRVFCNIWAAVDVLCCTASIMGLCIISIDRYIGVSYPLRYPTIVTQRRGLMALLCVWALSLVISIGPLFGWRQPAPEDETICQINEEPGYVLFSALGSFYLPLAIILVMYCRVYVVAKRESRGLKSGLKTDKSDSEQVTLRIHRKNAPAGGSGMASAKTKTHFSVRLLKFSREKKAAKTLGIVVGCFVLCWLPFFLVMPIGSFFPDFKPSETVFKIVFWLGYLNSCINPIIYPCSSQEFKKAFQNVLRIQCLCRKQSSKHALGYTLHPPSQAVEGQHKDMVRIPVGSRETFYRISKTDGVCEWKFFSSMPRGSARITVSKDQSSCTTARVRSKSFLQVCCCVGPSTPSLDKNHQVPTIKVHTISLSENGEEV
method_summary: Functional antagonism of phenylephrine-induced contraction of canine prostate strips
Format: cell-based, dog (canine)
condition_info: vs phenylephrine-induced contraction, Schild plot; read-out: pA2 Dog Prostate [α-1A] (converted)
Where a name gives a salt, the structure may show the parent alone.
measurement_name: Kb (nM)
One number for each entry, in nM.

Some solved entries appear below for comparison.
> print(dat)
                                   compound  measurement.name  units  observed.result
1  COc1cccc2c1CC[C@H]1CN(CCn3c(=O)[nH]c4sc(-c5ccccc5)cc4c3=O)C[C@@H]21 (relative stereo) [Example 7, hydrochloride]                Kb     nM               24
2  COc1cccc2c1CC[C@H]1CN(CCn3c(=O)[nH]c4c(C)cc(C)cc4c3=O)C[C@@H]21 (relative stereo) [Example 20, hydrochloride]                Kb     nM             1.48

According to the records, this compound COc1cccc2c1CC[C@H]1CN(CCn3c(=O)[nH]c4c(C)c(C)cnc4c3=O)C[C@@H]21 [Example 66, dihydrochloride] displays Kb of 1.15

* * *

For each entry below, report its Kb value.
system_under_test: α-1A adrenoceptor (dog prostate)
Construct: from tissue; host or cells: canine prostate strips
method_summary: Functional antagonism of phenylephrine-induced contraction of canine prostate strips
Type: cell-based, dog (canine)
condition_info: vs phenylephrine-induced contraction, Schild plot; read-out: pA2 Dog Prostate [α-1A] (converted)
Counter-ions that a name gives are not always drawn.

> print(dat)
                                    compound  measurement.name  observed.result
 1  COc1cccc2c1CC[C@H]1CN(CCn3c(=O)[nH]c4cc(C(=O)OC(C)C)ccc4c3=O)C[C@@H]21 [Example 73, hydrochloride]                Kb          1.23 nM
 2  COc1cccc2c1CC[C@H]1CN(CCn3c(=O)[nH]c4cc5c(cc4c3=O)OCCO5)C[C@@H]21 [Example 38, hydrochloride]                Kb         0.229 nM
 3  COc1cccc2c1CC[C@H]1CN(CCn3c(=O)[nH]c4ccncc4c3=O)C[C@@H]21 (relative stereo) [Example 27, dihydrochloride]                Kb          2.34 nM
 4  COc1cccc2c1CC[C@H]1CN(CCn3c(=O)[nH]c4c(-c5ccccc5)c(OC)sc4c3=O)C[C@@H]21 [Example 62, hydrochloride]                Kb          2.57 nM
 5  COc1cccc2c1CC[C@H]1CN(CCn3c(=O)[nH]c4scc(C)c4c3=O)C[C@@H]21 (relative stereo) [Example 4, hydrochloride]                Kb          12.3 nM
 6  COc1cc2c(cc1Cl)c(=O)n(CCN1C[C@@H]3CCc4c(OC)cccc4[C@@H]3C1)c(=O)n2C [Example 51, hydrochloride]                Kb          14.1 nM
 7  CCc1c(OC)sc2c(=O)n(CCN3C[C@@H]4CCc5c(OC)cccc5[C@@H]4C3)c(=O)[nH]c12 [Example 63, hydrochloride]                Kb          1.35 nM
 8  COc1cccc2c1CC[C@H]1CN(CCn3c(=O)c4ccccc4n(C)c3=O)C[C@@H]21 (relative stereo) [Example 26, hydrochloride]                Kb         0.589 nM
 9  COc1cccc2c1CC[C@H]1CN(CCn3c(=O)[nH]c4c(C)c(OC)ccc4c3=O)C[C@@H]21 [Example 77, hydrochloride]                Kb         0.398 nM
10  COc1cccc2c1CC[C@H]1CN(CCn3c(=O)[nH]c4ccc([N+](=O)[O-])cc4c3=O)C[C@@H]21 (relative stereo) [Example 16, hydrochloride]                Kb          12.3 nM

Hello, I would appreciate it if you could give Kb for each entry below.
1. CCc1cccc2c1CC[C@H]1CN(CCn3c(=O)[nH]c4cc(OC)c(OC)cc4c3=O)C[C@@H]21 [Example 83, hydrochloride]
2. COC(=O)c1ccc2c(=O)n(CCN3C[C@@H]4CCc5c(OC)cccc5[C@@H]4C3)c(=O)[nH]c2c1 [Example 69, hydrochloride]
3. COc1cccc2c1CC[C@H]1CN(CCn3c(=O)[nH]c4c(Cl)c(OC)c(Cl)cc4c3=O)C[C@@H]21 [Example 48, hydrochloride]

1. 11.2 nM
2. 0.575 nM
3. 6.46 nM

* * *

For each entry below, report its Kb value.
system_under_test: α-1A adrenoceptor (dog prostate)
Construct: from tissue; host or cells: canine prostate strips
method_summary: Functional antagonism of phenylephrine-induced contraction of canine prostate strips
Assay type: cell-based, dog (canine)
condition_info: vs phenylephrine-induced contraction, Schild plot; read-out: pA2 Dog Prostate [α-1A] (converted)
Counter-ions that a name gives are not always drawn.
Please append the unit to your numeric answer.

Some solved entries appear below for comparison.
> print(dat)
                                   molecule  measurement.name  observed.result
1  COc1cccc2c1CC[C@H]1CN(CCn3c(=O)oc4cc5c(cc4c3=O)OCO5)C[C@@H]21 [Example 55, hydrochloride]                Kb           4.9 nM
2  COc1cccc2c1CC[C@H]1CN(CCn3c(=O)[nH]c4c(-c5ccccc5C)csc4c3=O)C[C@@H]21 [Example 84, hydrochloride]                Kb          8.13 nM
3  COc1cccc2c1CC[C@H]1CN(CCn3c(=O)[nH]c4c(C(C)C)c(OC)sc4c3=O)C[C@@H]21 [Example 65, hydrochloride]                Kb          2.34 nM
4  COC(=O)c1cc2c(=O)n(CCN3C[C@@H]4CCc5c(OC)cccc5[C@@H]4C3)c(=O)[nH]c2s1 [Example 59, hydrochloride]                Kb          3.31 nM
5  COc1cccc2c1CC[C@H]1CN(CCn3c(=O)[nH]c4ccccc4c3=O)C[C@@H]21 [Example 79, hydrochloride]                Kb         0.977 nM

Hello, I would appreciate it if you could give Kb for each entry below.
1. COc1cccc2c1CC[C@H]1CN(CCn3c(=O)[nH]c4[nH]ccc4c3=O)C[C@@H]21 (relative stereo)
2. COc1cccc2c1CC[C@H]1CN(CCn3c(=O)[nH]c4sccc4c3=O)C[C@@H]21 (relative stereo) [Example 3, hydrochloride]
3. CCOC(=O)c1ccc2c(=O)n(CCN3C[C@@H]4CCc5c(OC)cccc5[C@@H]4C3)c(=O)[nH]c2c1 [Example 71, hydrochloride]
4. COc1cccc2c1CC[C@H]1CN(CCN3Cc4ccccc4NC3=O)C[C@@H]21 [Example 44, hydrochloride]

1. 1.15 nM
2. 2.09 nM
3. 3.55 nM
4. 5.37 nM

Hello, I would appreciate it if you could give Kb for each entry below.
1. COc1cccc2c1CC[C@H]1CN(CCn3cnc4c(OC)c(OC)ccc4c3=O)C[C@@H]21 [Example 58, dihydrochloride]
2. COc1cccc2c1CC[C@H]1CN(CCn3c(=O)[nH]c4cc(Cl)ccc4c3=O)C[C@@H]21 (relative stereo) [Example 11, hydrochloride]
3. COc1cccc2c1CC[C@H]1CN(CCn3c(=O)[nH]c4cc(C(=O)O)ccc4c3=O)C[C@@H]21 [Example 70, hydrochloride]
4. COc1cccc2c1CC[C@H]1CN(CCn3c(=O)[nH]c4c(cnn4C)c3=O)C[C@@H]21 (relative stereo) [Example 28, hydrochloride]

1. 1.26 nM
2. 1.2 nM
3. 1.12 nM
4. 4.79 nM
